Please provide measured Sedation Duration for the entries that follow.
system: SD rats; experiment: animal or person; type: in vivo, rat; conditions: rat, in vivo, iv; further: test concentration or dose not given here

structure.smiles.string	Sedation Duration
CCOC(=O)C1(c2ccccc2)CCN(c2cc(C(C)C)c(O)c([C@H](C)C3CC3)c2)CC1	17.48 to 23.03 min
CCOC(=O)N(c1ccccc1)N1CCN(c2cc(C(C)C)c(O)c(C(C)C)c2)CC1	22.27 to 35.75 min

From here, focus on the item given below.
// query Sedation Duration value for entry CCOC(=O)N(c1cccc(Cl)c1)N1CCN(c2cc(C(C)C)c(O)c([C@H](C)C3CC3)c2)CC1
19.78 to 160.07 min
